target: 5-HT1D/5-HT1F (Homo sapiens) (UniProt P30939+P28221); assay: Selectivity index, ratio of Ki for human 5HT1D receptor to Ki for human 5HT1F receptor
Sequence (P28221 whole entry, looked up): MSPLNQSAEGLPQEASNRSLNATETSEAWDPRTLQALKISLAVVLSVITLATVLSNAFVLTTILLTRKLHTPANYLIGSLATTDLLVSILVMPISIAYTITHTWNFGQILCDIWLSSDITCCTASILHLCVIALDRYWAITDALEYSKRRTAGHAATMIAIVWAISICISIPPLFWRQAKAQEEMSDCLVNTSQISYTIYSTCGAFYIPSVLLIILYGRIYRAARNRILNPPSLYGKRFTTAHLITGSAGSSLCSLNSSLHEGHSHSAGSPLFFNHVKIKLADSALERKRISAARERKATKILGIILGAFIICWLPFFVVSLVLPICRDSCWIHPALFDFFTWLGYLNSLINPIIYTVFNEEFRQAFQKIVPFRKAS
Sequence (P30939 whole entry, looked up): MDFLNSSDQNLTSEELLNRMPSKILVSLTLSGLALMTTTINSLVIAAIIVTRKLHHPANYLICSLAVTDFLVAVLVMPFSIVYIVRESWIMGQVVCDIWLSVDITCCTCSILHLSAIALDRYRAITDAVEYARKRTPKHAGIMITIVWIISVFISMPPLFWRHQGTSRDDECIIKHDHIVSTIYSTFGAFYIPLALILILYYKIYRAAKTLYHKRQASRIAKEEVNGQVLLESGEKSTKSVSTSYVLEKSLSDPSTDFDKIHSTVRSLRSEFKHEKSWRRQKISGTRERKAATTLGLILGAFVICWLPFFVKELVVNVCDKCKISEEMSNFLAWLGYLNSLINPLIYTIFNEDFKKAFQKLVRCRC
Quick rule for you: Ratio Ki under 0.6 gets class 1, anything else gets class 0.

>>> cat("COc1c(NC(=O)c2ccc(F)cc2)cccc1C(=O)C1CCN(C)CC1")
"class 0"
>>> cat("CN1CCC(C(=O)c2ccnc(NC(=O)c3ccc(F)cc3)c2)CC1")
"class 1"
>>> cat("CN1CCC(C(=O)c2cccc(NC(=O)c3ccc(F)cc3)c2)CC1")
"class 0"

Input line: Please check: Ratio Ki for CN1CCC(c2c[nH]c3ccc(NC(=O)c4ccc(F)cc4)cc23)CC1 , strictly under 0.6 or not?
Output line: class 0

Input line: Please check: Ratio Ki for CN1CCC(C(=O)c2cccc(NC(=O)c3ccc(F)cc3)c2Cl)CC1 , strictly under 0.6 or not?
Output line: class 1

Input line: Please check: Ratio Ki for CN1CCC(C(=O)c2cccc(NC(=O)c3ccc(F)cc3)n2)CC1 , strictly under 0.6 or not?
Output line: class 0

Numbers sourced from ChEMBL document CHEMBL3616417.
